System: pigweed (Amaranthus retroflexus)
assayRemarks: Test A postemergence
Assay type: in vivo
appliedConditions: Amaranthus retroflexus, post-emergence, 240 h, 125 g ai/ha, Postemergence; visual injury after approximately 10 d; 0 to 100 scale where 0 is no effect and 100 is complete control; read-out: Plant response rating, Pigweed
reportedEndpoint: pest or weed control at 125 g/ha (%)
Numbers only, in %.

Below, 2 compounds whose answers are already recorded.
compound	pest or weed control at 125 g/ha [%]
CSc1ccccc1NC(=O)[C@H]1C(=O)N(C)CC[C@@H]1c1ccc(OC(F)(F)F)cc1	0
Cc1ccc([C@H]2CN(C)C(=O)[C@@H]2C(=O)Nc2ccccc2[S+](C)[O-])cc1Cl (single isomer, unassigned)	0

Items follow; give pest or weed control at 125 g/ha for each.
1. CN1C[C@H](c2ccc(C(F)(F)F)cc2)[C@@H](C(=O)Nc2cccc(F)c2Br)C1=O
2. Cc1cc([C@H]2CN(C)C(=O)[C@@H]2C(=O)Nc2cccc(F)c2F)ccc1Cl
3. O=C(Nc1ccccc1F)[C@H]1C(=S)NC[C@@H]1c1ccc(Cl)cc1 (racemic)
4. CCOc1cccc([C@H]2CNC(=O)[C@@H]2C(=O)Nc2cccc(F)c2F)c1
5. CN1C[C@H](c2cc(F)cc(Cl)c2)[C@@H](C(=O)Nc2cccc(F)c2F)C1=O
6. CN1CC[C@H](c2ccc(OC(F)(F)F)cc2)[C@@H](C(=O)Nc2cccc(Cl)c2F)C1=O
7. CN1CC[C@H](c2ccc(OC(F)(F)F)cc2)[C@@H](C(=O)Nc2ccc(F)c(F)c2F)C1=O

Response line:
1. 60
2. 20
3. 0
4. 0
5. 40
6. 0
7. 0

Prompt line: Check the records and state pest or weed control at 125 g/ha for O=C1NC[C@H](c2csc(C(F)(F)F)c2)[C@H]1C(=O)Nc1cccc(F)c1F
Response line: 0
